Collected set of IC50 measured with ITK (Homo sapiens) across studies.

Example results:
molecule	IC50
C=CC(=O)N1CCC[C@@H](n2nc(C(=O)Nc3nc4ccccc4o3)c3c(N)nccc32)C1	13.1 nM
C=CC(=O)N1CCC[C@H]1c1nc(-c2ccc(Oc3ccccc3)cc2)c2cnccn12	> 500 nM
C=CC(=O)Nc1cc(-c2cnc3[nH]cc(-c4cccc(C#N)c4)c3c2)cnc1OC1CCOC1 (centres unmarked)	≤ 100 nM
CN(c1ncnc2[nH]ncc12)C1CCCCN(C(=O)CNc2cc(Cl)cc(Cl)c2)C1 (centres unmarked)	1000 to 10000 nM
CNc1cc(-c2c[nH]c(=O)c(NC3CN(C(=O)/C=C/CN(C)C)C3)c2)ccn1	≤ 1000 nM
C=CC(=O)Nc1cccc(-c2cc(Cc3cccnc3)cc(Nc3ncc(C)s3)n2)c1	2.3 nM
C=CC(=O)N(C)c1cccc(-c2cnc3[nH]cc(-c4ccnc(OC)c4)c3c2)c1	≤ 1000 nM

What does the data say about its IC50? Entry: `C=CC(=O)N1CCC[C@@H](n2nc(-c3ccc(C(=O)Nc4ccccn4)cc3Cl)c3c(N)ncc(C#N)c32)C1`
1.3 nM

----------
Collected set of pIC50 measured with ITK (Homo sapiens, UniProt Q08881) across studies.
pIC50: −log10 of the molar value.

Example results:
compound	result
C=CC(=O)N1CCC[C@@H](n2nc(-c3ccc(C(=O)Nc4ccccn4)cc3OC)c3c(N)nccc32)C1	7.94
C=CC(=O)Nc1cc(-c2cnc3[nH]cc(-c4ccnc(OC)c4)c3c2)cc(OC(C)C)n1	≥ 6.00
C=CC(=O)Nc1cccc(Nc2nc(Nc3ccc4c(c3)N(C(=O)C(F)(F)F)CCO4)ncc2F)c1	7.00 to 8.00
C=CC(=O)Nc1cccc(Nc2nc(Nc3ccc(OC[C@@H]4C[C@@H](O)CN4)c(F)c3)ncc2F)c1	7.00 to 8.00
C=CC(=O)Nc1cccc(-c2cc(CN3CCOCC3)cc(Nc3ncc(C(F)(F)F)s3)n2)c1	8.66
CC#CC(=O)N1CCC[C@H]1c1nc(-c2ccc(OCc3ccccc3)cc2)c2c(N)nccn12	< 5.00

Identify the measured pIC50 of `Cc1cc2c(-c3c[nH]c4ncc(-c5cc(NC(=O)/C=C/CN(C)C)cc(C(F)(F)F)c5)cc34)ccnc2[nH]1` for ITK (Homo sapiens, UniProt Q08881).
≥ 7.00

Identify the measured pIC50 of `C=CC(=O)N1CCC[C@H]1Cn1nc(-c2ccc(Oc3ccccc3)cc2F)c2cncnc21` for ITK (Homo sapiens, UniProt Q08881).
< 6.30

Identify the measured pIC50 of `C=CC(=O)Nc1cccc(Nc2nc(Nc3ccc(OC)nc3)ncc2F)c1` for ITK (Homo sapiens, UniProt Q08881).
7.00 to 8.00

Identify the measured pIC50 of `C=CC(=O)Nc1cccc(-c2cc(CN3CCN(C(C)=O)CC3)cc(Nc3ncc(C)s3)n2)c1` for ITK (Homo sapiens, UniProt Q08881).
8.66

Identify the measured pIC50 of C=CC(=O)N1CC2CC1[C@H](n1nc(-c3ccc(C(=O)Nc4ccccn4)cc3F)c3c(N)nccc31)C2 (stereo partly drawn) for ITK (Homo sapiens, UniProt Q08881).
7.51

Identify the measured pIC50 of `CN(C)C/C=C/C(=O)Nc1cccc(-c2cnc3[nH]cc(-c4ccc(=O)n(CC5CC5)c4)c3c2)c1` for ITK (Homo sapiens, UniProt Q08881).
≥ 6.00

Identify the measured pIC50 of `C=CC(=O)N1CCC[C@@H](n2nc(-c3ccc(C(=O)Nc4ccccn4)cc3)c3c(N)nccc32)C1` for ITK (Homo sapiens, UniProt Q08881).
7.58

Identify the measured pIC50 of `CC#CC(=O)NCCCC(=O)c1nc(-c2ccc(C(=O)Nc3ccccn3)c(OC)c2)c2c(N)nccn12` for ITK (Homo sapiens, UniProt Q08881).
< 5.00

Identify the measured pIC50 of `NS(=O)(=O)c1cccc(Nc2ncc3c(n2)-c2cc(-c4cccs4)sc2CC3)c1` for ITK (Homo sapiens, UniProt Q08881).
> 6.00
